What melting point was measured for each of the following?

Given the compound "C=CCc1c(OCC=Cc2ccccc2)ccc2c1CCC(=O)N2CC=Cc1ccccc1" , what is its reported melting point? 66 to 68 °C

Given the compound "COc1ccc(Cc2n[nH]c3c2c(=O)n(-c2ccccc2)c2ncccc32)cc1" , what is its reported melting point? 300 to 302 °C

Given the compound "Fc1ccc(-c2nn3c(c2-c2ccncc2)NCC3)cc1" , what is its reported melting point? 213 to 214 °C

Given the compound "C[C@@H](CO)Oc1cc(Oc2ccc(C(=O)N3CCC3)cc2F)cc(C(=O)Nc2ccn(C)n2)c1" , what is its reported melting point? 142 °C

Given the compound "COc1cc2ccc3nc4ccccc4cc3c2cc1OC" , what is its reported melting point? 190 to 192 °C

Given the compound "COc1cccc2c1CCC[C@H]2NC(=O)c1cccc(Cl)c1O" , what is its reported melting point? 175 to 176 °C

Given the compound CC(OCc1ccc2ccccc2c1)(C(N)=O)C(F)(F)F (stereo not given) , what is its reported melting point? 111 to 112 °C

Given the compound "O=C(Nc1ccccc1[N+](=O)[O-])c1ccc(-n2nc(C(F)(F)F)cc2C(F)(F)F)cc1" , what is its reported melting point? 173 to 175 °C

Given the compound CC1(CCl)COC(N)=N1 (stereo not given) , what is its reported melting point? 61 to 62 °C

Given the compound CC(C#Cc1cccc(Oc2nccs2)c1)N(O)C(N)=O (stereo not given) , what is its reported melting point? 118 to 119 °C

----------
What melting point was measured for each of the following?

Given the molecule "CC(=O)Nc1cccc(-c2nn3cnnc3cc2C)c1" , what is its reported melting point? 298 to 301 °C

Given the molecule "CON(C(=N)N)c1nc(C)cc(C)n1" , what is its reported melting point? 134 to 136 °C

Given the molecule OC(Cc1ccc(F)cc1)(Cn1cncn1)C1(Cl)CC1 (stereo unspecified) , what is its reported melting point? 111 °C

Given the molecule "OCc1c(Cl)cc(Cl)cc1Br" , what is its reported melting point? 111 to 112 °C

Given the molecule "COc1ccc(S(=O)(=O)N(CCCO)c2ccccc2/C=C/c2ccncc2)cc1" , what is its reported melting point? 164 to 167 °C

Given the molecule "Cn1c(=O)c(-c2c(Cl)cccc2Cl)cc2cnc(Nc3ccc(CCCC(=O)O)cc3)nc21" , what is its reported melting point? 169 to 171 °C

----------
Test Readout: melting point

Given the molecule "CCCOc1cc(CCCOc2nn(Cc3ccccc3)cc2CC(=O)O)n(Cc2ccc(Cl)cc2Cl)n1" , what is its reported melting point? 132 to 134 °C

Given the molecule "NC(=O)Cc1c(CCN(Cc2ccccc2)Cc2ccccc2)[nH]c2ccccc12" , what is its reported melting point? 135 to 136 °C

Given the molecule COC1CC(N)C(O)C(C)O1 (stereo not given) , what is its reported melting point? 130 °C

Given the molecule NS(=O)(=O)c1cc2c(c(Cl)c1Cl)OC(CCl)C2 (stereo not given) , what is its reported melting point? 195 to 196 °C

Given the molecule CCS(=O)(=O)c1sc(S(N)(=O)=O)cc1C(C)NC(C)=O (stereo not given) , what is its reported melting point? 213 to 220 °C

----------
What melting point was measured for each of the following?

Given the compound "CC(C)(CO)NS(=O)(=O)c1cnc(NC(=O)c2cnn3c(C(F)(F)F)cc(-c4ccc(C(F)(F)F)cc4)nc23)s1" , what is its reported melting point? 292 °C

Given the compound "COc1cc(-c2nc3ccc(OCCN4CCN(C)CC4)cc3n2Cc2ccccc2)cc(OC)c1OC" , what is its reported melting point? 113 °C

Given the compound "NS(=O)(=O)Cc1csc(-c2ccc(Cl)c(Cl)c2)n1" , what is its reported melting point? 165 to 167 °C

Given the compound "CCCn1c(=O)c(/C=C/C(=O)OCC)c2n(c1=O)CCS2" , what is its reported melting point? 140 to 141 °C

Given the compound "O=C(c1cccs1)N1CCc2cc(S(=O)(=O)n3cc(-c4ccccc4)[nH]c3=O)ccc21" , what is its reported melting point? 258 to 260 °C

Given the compound "CC(C)(O)C(=O)c1ccc(OCC(=O)O)cc1" , what is its reported melting point? 131 to 134 °C

Given the compound "Cc1noc(NS(=O)(=O)c2cc(-c3ccccc3)cs2)c1Br" , what is its reported melting point? 108 to 110 °C

Given the compound "CCOC(=O)c1cc2cc(NC(C)=O)ccc2nn1" , what is its reported melting point? 256 to 258 °C

Given the compound "O=C(O)COc1nc(F)c(Cl)cc1Cl" , what is its reported melting point? 140 to 144 °C

Given the compound "CNC(=O)c1cnc2cccc(C)n2c1=O" , what is its reported melting point? 208 to 210 °C

----------
What melting point was measured for each of the following?

Given the compound "CC1(C(=O)NCCc2cccs2)CC1" , what is its reported melting point? 86 to 88 °C

Given the compound "O=C(NC1(C(=O)O)CCOCC1)OCc1ccccc1" , what is its reported melting point? 110 to 115 °C

Given the compound O=C1C=C(O)CC(c2ccc3sccc3c2)C1 (stereo unspecified) , what is its reported melting point? 192 °C

Given the compound "CN(C)CCn1c(=O)[nH]c2cccnc21" , what is its reported melting point? 141 to 142 °C

Given the compound "CCC1(CCCCCC(=O)O)C(=O)NC(=O)NC1=O" , what is its reported melting point? 185 to 192 °C

Given the compound "O=C(c1cccs1)c1cnn2c(-c3cccc(-c4nnn(Cc5cccnc5)n4)c3)ccnc12" , what is its reported melting point? 95 °C

Given the compound "COC(=O)c1[nH]c(=O)[nH]c(=O)c1[N+](=O)[O-]" , what is its reported melting point? 229 to 230 °C

Given the compound "O=C(c1ccnc(F)c1)N1CCC[C@H](c2nc(-c3ccc(F)cc3)no2)C1" , what is its reported melting point? 93 to 95 °C

Given the compound "O=C(O)CCCc1ccc(NS(=O)(=O)c2ccc(Cl)c(Cl)c2)cn1" , what is its reported melting point? 193 to 194 °C

Given the compound "CCOC(=NC(=O)c1ccc(-c2ccccc2)cc1)N1Cc2ccccc2-c2ccccc2C1" , what is its reported melting point? 52 to 58 °C

Given the compound "CC(C)(COc1ccc2ncnn2n1)CS(N)(=O)=O" , what is its reported melting point? 181 to 184 °C

----------
Test Readout: melting point

Given the molecule "CCOc1ccc(CC)cc1-c1nc2ccc(C(=O)O)cc2c(=O)[nH]1" , what is its reported melting point? > 310 °C

Given the molecule C=CCN1Cc2cncn2C(c2ccc(C#N)cc2)C1=O (stereo unspecified) , what is its reported melting point? 107 to 109 °C

Given the molecule "O=C(c1ccccc1)c1ccc(OCCc2c[nH]cn2)cc1" , what is its reported melting point? 193 to 194 °C

Given the molecule "COc1cc(C)c(C=CC(C)=CC=C(C)C(=O)O)cc1C" , what is its reported melting point? 222 to 224 °C

Given the molecule "Cc1cc(C#N)c(O)c(C(=O)O)c1" , what is its reported melting point? 213 to 214 °C

Given the molecule "Cc1ccc(-c2csc(C(=O)Nc3nnn[nH]3)n2)cc1" , what is its reported melting point? 276 to 278 °C

Given the molecule COC(=O)/C=C/c1ccc(CC(C)NCC(O)c2cccc(F)c2)cc1 (stereo unspecified) , what is its reported melting point? 75 to 110 °C

Given the molecule CNCC(O)C(Oc1ccc2c(c1)OCO2)c1ccccc1 (stereo unspecified) , what is its reported melting point? 100 to 122 °C

Given the molecule "CCCC1=C(CCC)C1(C(=O)Nc1ccc(Br)cc1C)C(=O)OC" , what is its reported melting point? 52 to 54 °C

Given the molecule "Cn1cc([N+](=O)[O-])c(C(=O)NC2CCCC2)n1" , what is its reported melting point? 176 to 177 °C

Given the molecule CCOC(=O)C1(Nc2ccc(C(O)(C(F)(F)F)C(F)(F)F)cc2)CCC(C(C)(C)C)CC1 (stereo unspecified) , what is its reported melting point? 107 °C

----------
Test Readout: melting point

Given the molecule "Cc1ccc(-c2ccccc2)cc1Cn1c(C)nn(C)c1=O" , what is its reported melting point? 139 °C

Given the molecule "ON=C(Cn1ccnc1)c1ccc(Cl)cc1Cl" , what is its reported melting point? 205 to 206 °C

Given the molecule "COc1ccc(C(C)C)cc1-c1cc(-c2nnnn2C2CCN(C(=O)OC(C)(C)C)CC2)c(OCc2ccccc2)cc1OCc1ccccc1" , what is its reported melting point? 77 to 81 °C

Given the molecule "CCc1nn(CC(=O)O)c(CC)c1Oc1cc(Cl)cc(Cl)c1" , what is its reported melting point? 157 to 158 °C

Given the molecule CC(=O)NC(C)(C)c1ccc(C(C)N2CCN(c3ccc(F)cc3)CC2)cc1 (stereo unspecified) , what is its reported melting point? 156 to 157 °C

Given the molecule "CC(=O)c1cc(NS(C)(=O)=O)ccc1F" , what is its reported melting point? 120 to 123 °C

Given the molecule "O=C(N[C@H]1CC[C@H](CCN2CCN(c3nccc4c3CCO4)CC2)CC1)C1CCC1" , what is its reported melting point? 202 °C

Given the molecule "CCOc1cc(C(F)(F)F)sc1C(=O)O" , what is its reported melting point? 144 °C

Given the molecule CCc1cccc2c3c([nH]c12)C(CC)(CC(=O)OC)OCC3 (stereo unspecified) , what is its reported melting point? 128 to 130 °C

Given the molecule "Cc1cccc2nc(-c3cc(C(F)F)nn3-c3ccc(S(N)(=O)=O)cc3)sc12" , what is its reported melting point? 264 to 265 °C

Given the molecule "Nc1ccc(S(=O)(=O)Nc2nnc(CC(=O)O)s2)cc1" , what is its reported melting point? 209 to 210 °C

Given the molecule "CC(C)(C)c1cc(-c2nn(CC(=O)O)c3ncccc23)cc(C(C)(C)C)c1O" , what is its reported melting point? 210 to 212 °C

Given the molecule "Cc1nc(C)c(Cl)c(NCc2cc(OCC(F)(F)F)c(OCc3ccccc3)c(Br)n2)n1" , what is its reported melting point? 97 to 98 °C

Given the molecule "CCCCNC(=O)Oc1cccc(NC(=O)NC2CC2)c1" , what is its reported melting point? 154 °C

Given the molecule "CSCCOc1ccc(-c2ccc3c(c2)C=C(C(=O)Nc2ccc(CN(C)C4CCOCC4)cc2)CCS3(=O)=O)cc1" , what is its reported melting point? 222 to 224 °C

Given the molecule "O=S(=O)(CC=C(c1ccccc1)c1ccccc1)c1ccccc1" , what is its reported melting point? 106 °C

Given the molecule CC(C)C1(C)C(=O)NC2c3ccccc3C(=O)N21 (stereo unspecified) , what is its reported melting point? 178 to 200 °C

Given the molecule "Cn1c([N+](=O)[O-])cnc1COc1ccc(S(C)(=O)=O)cc1" , what is its reported melting point? 155 °C

Given the molecule "C=CCNS(=O)(=O)c1ccc(I)cc1" , what is its reported melting point? 76 to 77 °C

Given the molecule "S=c1n(CNc2ccc(Br)cc2)nc(-c2ccncc2)n1-c1ccccc1" , what is its reported melting point? 208 to 209 °C

Given the molecule "COCOc1ccc(CO[Si](C)(C)C(C)(C)C)c2cccc(C)c12" , what is its reported melting point? 42 to 43 °C
